Please provide measured IC50 for the entries that follow.
Molecular target: Sirt2 (Homo sapiens)
Construct: expressed in transfected cells; host or cells: HEK293T
Sequence (Q8IXJ6 whole entry): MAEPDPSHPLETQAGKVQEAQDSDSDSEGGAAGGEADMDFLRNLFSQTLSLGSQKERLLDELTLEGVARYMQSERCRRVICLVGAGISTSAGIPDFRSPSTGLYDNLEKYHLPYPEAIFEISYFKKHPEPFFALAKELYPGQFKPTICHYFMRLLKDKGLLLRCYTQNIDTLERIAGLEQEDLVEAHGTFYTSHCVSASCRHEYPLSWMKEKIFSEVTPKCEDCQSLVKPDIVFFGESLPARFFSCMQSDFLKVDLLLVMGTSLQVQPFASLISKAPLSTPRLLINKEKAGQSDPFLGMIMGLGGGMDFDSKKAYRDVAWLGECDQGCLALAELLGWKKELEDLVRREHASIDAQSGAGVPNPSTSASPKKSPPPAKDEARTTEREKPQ
Assay: Cell-based NanoBRET assay for Sirt2 target engagement in HEK293T cells
Details: tracer SirReal-TAMRA 2 μM, read-out: Cellular Sirt2 target engagement IC50 (NanoBRET)

Query for Sirt2 (Homo sapiens): what IC50 does the record show for CCCCN(Cc1ccc(C(=O)NO)cc1)C(=O)CCCCn1cc(COc2cccc(Cc3cnc(NC(=O)CSc4nc(C)cc(C)n4)s3)c2)nn1 [Compound 33] ?
560 nM

Give recorded IC50 with Sirt2 (Homo sapiens) for the following compound: Cc1cc(C)nc(SCC(=O)Nc2ncc(Cc3cccc(OCc4cn(Cc5ccccc5)nn4)c3)s2)n1 [Compound 4, SirReal1.1, reference compound]
200 nM
